Biological target: Amine oxidase [flavin-containing] A (Rattus norvegicus, UniProt P21396)
Sequence (P21396 whole entry): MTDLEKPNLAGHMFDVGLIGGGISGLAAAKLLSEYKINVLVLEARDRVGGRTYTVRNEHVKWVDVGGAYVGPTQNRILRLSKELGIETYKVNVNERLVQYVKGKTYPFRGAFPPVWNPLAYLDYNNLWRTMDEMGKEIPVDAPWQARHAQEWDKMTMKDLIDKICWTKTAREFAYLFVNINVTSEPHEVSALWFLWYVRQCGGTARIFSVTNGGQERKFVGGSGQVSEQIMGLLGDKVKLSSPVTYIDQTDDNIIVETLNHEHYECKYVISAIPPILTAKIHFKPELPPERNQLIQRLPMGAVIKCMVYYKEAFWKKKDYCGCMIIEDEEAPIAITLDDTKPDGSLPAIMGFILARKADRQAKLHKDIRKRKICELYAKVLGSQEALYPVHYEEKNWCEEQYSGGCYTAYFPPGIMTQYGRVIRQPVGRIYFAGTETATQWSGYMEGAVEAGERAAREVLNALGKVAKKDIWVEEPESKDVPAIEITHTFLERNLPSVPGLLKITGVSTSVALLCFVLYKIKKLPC
Rule for this label: criterion met means IC50 is less than 400 µM; criterion not met means IC50 is at least 400 µM.

Could you please tell me whether IC50 recorded for CCCNC(=S)N1N=C(c2ccc(C)cc2)CC1c1ccc[nH]1 (configuration not stated) is less than 400 µM? criterion met

# strict comparison: is reported IC50 < 400 µM? input = CCCNC(=S)N1N=C(c2ccc(Cl)cc2)CC1c1ccc[nH]1 (configuration not stated) criterion met

Criterion: IC50 strictly below 400 µM. Is it met by CNC(=S)N1N=C(c2ccc(Cl)cc2)CC1c1ccc[nH]1 (configuration not stated) ? criterion met

Lab log: compare recorded IC50 with 400 µM; is it strictly lower for COc1ccc(C2=NN(C(=S)Nc3ccccc3)C(c3ccc[nH]3)C2)cc1 (configuration not stated) ? criterion not met

Is 400 µM strictly greater than the compound's reported IC50? compound: Cc1ccc(C2=NN(C(=S)Nc3ccccc3)C(c3ccc[nH]3)C2)cc1 (configuration not stated) criterion met

* * *

Test system: Mus musculus
Test: Inhibition of p-Benzoquinone-induced writhings in Swiss Albino mouse at 100 mg/kg, po relative to control
Type: functional
Conditions: Mus musculus, Swiss Albino, po
METRIC: inhibition in vivo at 100 mg/kg (%)
Lab book: enter the figure in %, no units written.

Please indicate recorded inhibition in vivo at 100 mg/kg of CCCNC(=S)N1N=C(c2ccc(Cl)cc2)CC1c1ccc[nH]1 (stereo unspecified) measured with Mus musculus. 57.9

// fetch inhibition in vivo at 100 mg/kg for CCNC(=S)N1N=C(c2ccc(C)cc2)CC1c1ccc[nH]1 (stereo unspecified) ; system: Mus musculus 15.4

Give inhibition in vivo at 100 mg/kg; test system Mus musculus; compound CNC(=S)N1N=C(c2ccc(Cl)cc2)CC1c1ccc[nH]1 (stereo unspecified) 22.5

Recall the reported inhibition in vivo at 100 mg/kg of CCCNC(=S)N1N=C(c2ccc(C)cc2)CC1c1ccc[nH]1 (stereo unspecified) when tested on Mus musculus. 48.2

Fill in inhibition in vivo at 100 mg/kg for CCNC(=S)N1N=C(c2ccc(OC)cc2)CC1c1ccc[nH]1 (stereo unspecified) tested with Mus musculus. 56.6

Please respond with reported inhibition in vivo at 100 mg/kg (system Mus musculus) for COc1ccc(C2=NN(C(=S)Nc3ccccc3)C(c3ccc[nH]3)C2)cc1 (stereo unspecified) . 48.4

Where do these numbers come from? They come from ChEMBL document CHEMBL1143749.
